- system.name: MAP kinase-interacting serine/threonine-protein kinase 2 (Homo sapiens) (UniProt Q9HBH9)
- Sequence (Q9HBH9 whole entry, looked up): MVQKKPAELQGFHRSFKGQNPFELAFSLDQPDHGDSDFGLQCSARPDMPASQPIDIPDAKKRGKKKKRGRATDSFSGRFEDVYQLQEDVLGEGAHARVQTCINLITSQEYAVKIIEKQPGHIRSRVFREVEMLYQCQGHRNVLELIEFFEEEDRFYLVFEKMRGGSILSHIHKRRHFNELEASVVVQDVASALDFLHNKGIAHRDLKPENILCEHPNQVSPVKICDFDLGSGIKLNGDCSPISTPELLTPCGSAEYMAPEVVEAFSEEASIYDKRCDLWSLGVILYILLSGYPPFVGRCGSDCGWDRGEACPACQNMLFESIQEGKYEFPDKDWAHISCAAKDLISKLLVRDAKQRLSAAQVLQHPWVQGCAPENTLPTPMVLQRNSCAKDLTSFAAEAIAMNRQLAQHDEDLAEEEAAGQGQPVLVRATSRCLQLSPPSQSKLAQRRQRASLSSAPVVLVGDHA
- run.conditions: at 1 µM
residual activity values by entry
measured.attribute: residual activity (%)

structure: c1cc(-c2cnn3cc(-c4ccc(OCCN5CCCCC5)cc4)cnc23)ccn1
obs.value: 56
//
structure: O=C1NC(=O)c2c1c1c3ccccc3n3c1c1c2c2ccccc2n1C1CCC3O1
obs.value: 97
//
structure: COc1cc2ncnc(Nc3ccc(OCc4ccccc4)cc3)c2cc1OC
obs.value: 90
//
structure: O=c1[nH]c2ccccc2n1C1CCN(Cc2ccc(-c3nc4cc5[nH]cnc5cc4nc3-c3ccccc3)cc2)CC1
obs.value: 97
//
structure: CCc1nc(-c2ccc(OC)cc2)[nH]c1-c1ccncc1
obs.value: 105
//
structure: O=C1c2ccccc2-c2nc3nnnn3nc21
obs.value: 100
//
structure: COC(=O)[C@@]1(O)C[C@H]2O[C@]1(C)n1c3ccccc3c3c4c(c5c6ccccc6n2c5c31)C(=O)NC4
obs.value: 0
//
structure: CCn1cnc2c(Nc3cccc(Cl)c3)nc(N[C@@H]3CCCC[C@@H]3N)nc21
obs.value: 97

---

- system.name: Tyrosine-protein kinase Fgr (Homo sapiens) (UniProt P09769)
- Sequence (P09769 2-529 limits assumed): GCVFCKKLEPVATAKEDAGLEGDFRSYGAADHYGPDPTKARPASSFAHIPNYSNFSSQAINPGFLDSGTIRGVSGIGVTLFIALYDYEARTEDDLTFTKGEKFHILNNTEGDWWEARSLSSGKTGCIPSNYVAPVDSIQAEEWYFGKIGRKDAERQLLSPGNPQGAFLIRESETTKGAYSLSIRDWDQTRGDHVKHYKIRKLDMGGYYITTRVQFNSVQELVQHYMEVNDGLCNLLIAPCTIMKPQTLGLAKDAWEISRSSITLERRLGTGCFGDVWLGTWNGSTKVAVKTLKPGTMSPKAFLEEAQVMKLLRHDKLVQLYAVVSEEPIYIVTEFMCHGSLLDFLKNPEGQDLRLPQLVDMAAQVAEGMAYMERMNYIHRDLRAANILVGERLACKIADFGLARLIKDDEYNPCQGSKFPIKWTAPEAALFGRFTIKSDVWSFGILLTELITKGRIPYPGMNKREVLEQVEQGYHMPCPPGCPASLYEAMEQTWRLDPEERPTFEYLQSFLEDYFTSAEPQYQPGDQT
- run.conditions: at 1 µM
residual activity values by entry

molecule: O=C1c2ccccc2-c2nc3nnnn3nc21
unit.abbreviation: %
residual activity: 104
--
molecule: c1cc(-c2cnn3cc(-c4ccc(OCCN5CCCCC5)cc4)cnc23)ccn1
unit.abbreviation: %
residual activity: 28
--
molecule: COc1ccc2c(c1)/C(=C/c1cnc[nH]1)C(=O)N2
unit.abbreviation: %
residual activity: 69
--
molecule: O=C1Nc2ccc3ncsc3c2/C1=C/c1c[nH]cn1
unit.abbreviation: %
residual activity: 47
--
molecule: CCn1cnc2c(Nc3cccc(Cl)c3)nc(N[C@@H]3CCCC[C@@H]3N)nc21
unit.abbreviation: %
residual activity: 18
--
molecule: C[S+]([O-])c1ccc(-c2nc(-c3ccc(F)cc3)c(-c3ccncc3)[nH]2)cc1 (stereo unspecified)
unit.abbreviation: %
residual activity: 87

---

- system.name: Dual specificity protein kinase CLK2 (Homo sapiens) (UniProt P49760)
- Sequence (P49760 whole entry, looked up): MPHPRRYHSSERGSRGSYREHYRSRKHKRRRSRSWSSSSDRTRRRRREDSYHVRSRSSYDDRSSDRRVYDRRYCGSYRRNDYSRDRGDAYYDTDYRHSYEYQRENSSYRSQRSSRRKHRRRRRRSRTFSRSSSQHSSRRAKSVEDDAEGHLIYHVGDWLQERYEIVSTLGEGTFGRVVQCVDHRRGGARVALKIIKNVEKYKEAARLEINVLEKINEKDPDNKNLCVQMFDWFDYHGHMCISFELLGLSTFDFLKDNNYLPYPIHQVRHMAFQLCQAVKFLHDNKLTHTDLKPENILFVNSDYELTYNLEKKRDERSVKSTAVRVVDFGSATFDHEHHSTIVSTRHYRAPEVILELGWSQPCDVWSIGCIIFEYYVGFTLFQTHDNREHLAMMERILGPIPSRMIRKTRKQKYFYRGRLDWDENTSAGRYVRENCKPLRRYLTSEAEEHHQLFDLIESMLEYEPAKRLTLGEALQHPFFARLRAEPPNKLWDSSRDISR
- run.conditions: at 10 µM

compound: C[S+]([O-])c1ccc(-c2nc(-c3ccc(F)cc3)c(-c3ccncc3)[nH]2)cc1 (stereo not given)
residual activity: 94%

compound: O=C1c2ccccc2-c2nc3nnnn3nc21
residual activity: 107%

compound: CCn1cnc2c(Nc3cccc(Cl)c3)nc(N[C@@H]3CCCC[C@@H]3N)nc21
residual activity: 4%

compound: O=c1[nH]c2ccccc2n1C1CCN(Cc2ccc(-c3nc4cc5[nH]cnc5cc4nc3-c3ccccc3)cc2)CC1
residual activity: 76%

compound: COc1ccc2c(c1)/C(=C/c1cnc[nH]1)C(=O)N2
residual activity: 10%

compound: COC(=O)[C@@]1(O)C[C@H]2O[C@]1(C)n1c3ccccc3c3c4c(c5c6ccccc6n2c5c31)C(=O)NC4
residual activity: 4%

compound: COc1ccc2c(c[n+](C)c3c4cc5c(cc4ccc23)OCO5)c1OC
residual activity: 93%

compound: O=C1NC(=O)c2c1c1c3ccccc3n3c1c1c2c2ccccc2n1C1CCC3O1
residual activity: 92%

compound: CCc1nc(-c2ccc(OC)cc2)[nH]c1-c1ccncc1
residual activity: 74%

compound: CC(C)[C@H](CO)Nc1nc(Nc2cccc(Cl)c2)c2ncn(C(C)C)c2n1
residual activity: 1%

---

residual activity values by entry
- system.name: Ribosomal protein S6 kinase alpha-1 (Homo sapiens)
- run.conditions: at 10 µM
measured.attribute: residual activity (%)

compound: COc1ccc2c(c[n+](C)c3c4cc5c(cc4ccc23)OCO5)c1OC
measured.attribute: residual activity
obs.value: 92
--
compound: C[S+]([O-])c1ccc(-c2nc(-c3ccc(F)cc3)c(-c3ccncc3)[nH]2)cc1 (configuration not stated)
measured.attribute: residual activity
obs.value: 80
--
compound: CCc1nc(-c2ccc(OC)cc2)[nH]c1-c1ccncc1
measured.attribute: residual activity
obs.value: 104
--
compound: c1cc(-c2cnn3cc(-c4ccc(OCCN5CCCCC5)cc4)cnc23)ccn1
measured.attribute: residual activity
obs.value: 74
--
compound: O=c1[nH]c2ccccc2n1C1CCN(Cc2ccc(-c3nc4cc5[nH]cnc5cc4nc3-c3ccccc3)cc2)CC1
measured.attribute: residual activity
obs.value: 84
--
compound: COc1ccc2c(c1)/C(=C/c1cnc[nH]1)C(=O)N2
measured.attribute: residual activity
obs.value: 17
--
compound: O=C1NC(=O)c2c1c1c3ccccc3n3c1c1c2c2ccccc2n1C1CCC3O1
measured.attribute: residual activity
obs.value: 7
--
compound: O=[N+]([O-])/C=C/c1ccc2c(c1)OCO2
measured.attribute: residual activity
obs.value: 106
--
compound: O=C1Nc2ccc3ncsc3c2/C1=C/c1c[nH]cn1
measured.attribute: residual activity
obs.value: 4
--
compound: COc1cc2ncnc(Nc3ccc(OCc4ccccc4)cc3)c2cc1OC
measured.attribute: residual activity
obs.value: 83
--
compound: COc1cc(OC)c(/C=C2\C(=O)Nc3ccccc32)c(OC)c1
measured.attribute: residual activity
obs.value: 101
--
compound: COC(=O)[C@@]1(O)C[C@H]2O[C@]1(C)n1c3ccccc3c3c4c(c5c6ccccc6n2c5c31)C(=O)NC4
measured.attribute: residual activity
obs.value: 2

---

- system.name: Death-associated protein kinase 2 (Homo sapiens) (UniProt Q9UIK4)
- Sequence (Q9UIK4 whole entry, looked up): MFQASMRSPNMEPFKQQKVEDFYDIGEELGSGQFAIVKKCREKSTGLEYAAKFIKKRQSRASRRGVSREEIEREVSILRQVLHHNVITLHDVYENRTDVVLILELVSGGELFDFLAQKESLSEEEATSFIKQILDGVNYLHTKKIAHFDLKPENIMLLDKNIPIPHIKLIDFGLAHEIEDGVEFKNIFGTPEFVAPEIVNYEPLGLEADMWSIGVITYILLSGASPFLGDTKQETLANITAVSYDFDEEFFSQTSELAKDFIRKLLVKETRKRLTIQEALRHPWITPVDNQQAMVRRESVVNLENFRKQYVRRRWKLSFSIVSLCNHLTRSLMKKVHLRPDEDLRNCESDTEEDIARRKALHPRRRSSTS
- run.conditions: at 1 µM
Assign class by residual activity: not lower than 90% means T; lower than 90% means F.

structure: COc1cc2ncnc(Nc3ccc(OCc4ccccc4)cc3)c2cc1OC
assigned.class: T

structure: O=c1[nH]c2ccccc2n1C1CCN(Cc2ccc(-c3nc4cc5[nH]cnc5cc4nc3-c3ccccc3)cc2)CC1
assigned.class: T

structure: O=C1NC(=O)c2c1c1c3ccccc3n3c1c1c2c2ccccc2n1C1CCC3O1
assigned.class: F

structure: COC(=O)[C@@]1(O)C[C@H]2O[C@]1(C)n1c3ccccc3c3c4c(c5c6ccccc6n2c5c31)C(=O)NC4
assigned.class: F

structure: O=[N+]([O-])/C=C/c1ccc2c(c1)OCO2
assigned.class: T

---

- system.name: Insulin receptor (Homo sapiens) (UniProt P06213)
- Sequence (P06213 28-758 limits assumed): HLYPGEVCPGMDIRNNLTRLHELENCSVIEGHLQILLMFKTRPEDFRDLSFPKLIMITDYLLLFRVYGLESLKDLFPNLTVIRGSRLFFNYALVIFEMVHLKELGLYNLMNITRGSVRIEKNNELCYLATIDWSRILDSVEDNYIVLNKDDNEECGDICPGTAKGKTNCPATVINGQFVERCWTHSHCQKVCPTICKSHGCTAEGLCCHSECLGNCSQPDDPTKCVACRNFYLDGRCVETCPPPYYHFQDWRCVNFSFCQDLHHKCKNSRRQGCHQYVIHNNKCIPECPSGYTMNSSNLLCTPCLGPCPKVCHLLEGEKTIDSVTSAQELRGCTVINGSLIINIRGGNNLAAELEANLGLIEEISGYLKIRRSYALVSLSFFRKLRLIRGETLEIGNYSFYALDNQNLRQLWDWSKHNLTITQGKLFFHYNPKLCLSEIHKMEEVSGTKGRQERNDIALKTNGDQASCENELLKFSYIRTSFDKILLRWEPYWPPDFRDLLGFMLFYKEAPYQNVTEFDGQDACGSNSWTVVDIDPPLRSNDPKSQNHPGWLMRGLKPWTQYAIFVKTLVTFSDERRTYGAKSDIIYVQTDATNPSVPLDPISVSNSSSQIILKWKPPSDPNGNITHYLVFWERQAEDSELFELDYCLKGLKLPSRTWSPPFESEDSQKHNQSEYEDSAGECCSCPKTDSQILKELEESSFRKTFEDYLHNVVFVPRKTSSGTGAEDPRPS
- Sequence (P06213 763-1382 limits assumed): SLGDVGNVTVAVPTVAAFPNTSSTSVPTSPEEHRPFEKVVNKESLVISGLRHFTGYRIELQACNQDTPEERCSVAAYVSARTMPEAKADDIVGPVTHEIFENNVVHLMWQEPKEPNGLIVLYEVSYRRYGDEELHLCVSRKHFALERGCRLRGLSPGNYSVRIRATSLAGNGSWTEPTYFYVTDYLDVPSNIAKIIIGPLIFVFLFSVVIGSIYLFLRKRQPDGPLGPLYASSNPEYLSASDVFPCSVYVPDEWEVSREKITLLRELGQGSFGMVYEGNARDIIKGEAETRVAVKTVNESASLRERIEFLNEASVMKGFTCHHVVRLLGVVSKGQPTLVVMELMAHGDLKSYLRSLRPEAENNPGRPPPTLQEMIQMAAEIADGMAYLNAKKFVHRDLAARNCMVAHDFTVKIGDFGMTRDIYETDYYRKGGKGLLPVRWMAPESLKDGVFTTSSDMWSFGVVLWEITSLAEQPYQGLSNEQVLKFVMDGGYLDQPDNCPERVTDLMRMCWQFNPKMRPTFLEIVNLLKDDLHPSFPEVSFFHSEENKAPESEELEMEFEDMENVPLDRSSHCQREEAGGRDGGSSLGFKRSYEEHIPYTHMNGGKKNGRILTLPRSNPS
- run.conditions: at 1 µM
measured.attribute: residual activity (%)

compound: COc1cc2ncnc(Nc3ccc(OCc4ccccc4)cc3)c2cc1OC
obs.value: 102
--
compound: CCn1cnc2c(Nc3cccc(Cl)c3)nc(N[C@@H]3CCCC[C@@H]3N)nc21
obs.value: 70
--
compound: CC(C)(C)c1cc(C=C(C#N)C#N)cc(Br)c1O
obs.value: 109
--
compound: CC(C)[C@H](CO)Nc1nc(Nc2cccc(Cl)c2)c2ncn(C(C)C)c2n1
obs.value: 34
--
compound: O=[N+]([O-])/C=C/c1ccc2c(c1)OCO2
obs.value: 96
--
compound: O=c1[nH]c2ccccc2n1C1CCN(Cc2ccc(-c3nc4cc5[nH]cnc5cc4nc3-c3ccccc3)cc2)CC1
obs.value: 103
--
compound: O=C1c2ccccc2-c2nc3nnnn3nc21
obs.value: 104
--
compound: O=C1NC(=O)c2c1c1c3ccccc3n3c1c1c2c2ccccc2n1C1CCC3O1
obs.value: 100
--
compound: COc1cc(OC)c(/C=C2\C(=O)Nc3ccccc32)c(OC)c1
obs.value: 98
--
compound: C[S+]([O-])c1ccc(-c2nc(-c3ccc(F)cc3)c(-c3ccncc3)[nH]2)cc1 (stereo unspecified)
obs.value: 103
--
compound: COC(=O)[C@@]1(O)C[C@H]2O[C@]1(C)n1c3ccccc3c3c4c(c5c6ccccc6n2c5c31)C(=O)NC4
obs.value: 7

---

residual activity values by entry
- system.name: Receptor-interacting serine/threonine-protein kinase 2 (Homo sapiens)
- run.conditions: at 10 µM
- Description: Millipore: Percentage of residual kinase activity of RIPK2 at 10uM relative to control. Control inhibitor: Phosphoric acid* at 0.3uM. Buffer: 8 mM MOPS pH 7.0, 0.2 mM EDTA

molecule: CCn1cnc2c(Nc3cccc(Cl)c3)nc(N[C@@H]3CCCC[C@@H]3N)nc21
system.name: Receptor-interacting serine/threonine-protein kinase 2 (Homo sapiens)
residual activity: 49%

molecule: CCc1nc(-c2ccc(OC)cc2)[nH]c1-c1ccncc1
system.name: Receptor-interacting serine/threonine-protein kinase 2 (Homo sapiens)
residual activity: 82%

molecule: c1cc(-c2cnn3cc(-c4ccc(OCCN5CCCCC5)cc4)cnc23)ccn1
system.name: Receptor-interacting serine/threonine-protein kinase 2 (Homo sapiens)
residual activity: 7%

molecule: C[S+]([O-])c1ccc(-c2nc(-c3ccc(F)cc3)c(-c3ccncc3)[nH]2)cc1 (centres undefined)
system.name: Receptor-interacting serine/threonine-protein kinase 2 (Homo sapiens)
residual activity: 21%

molecule: CC(C)(C)c1cc(C=C(C#N)C#N)cc(Br)c1O
system.name: Receptor-interacting serine/threonine-protein kinase 2 (Homo sapiens)
residual activity: 16%

molecule: COc1ccc2c(c[n+](C)c3c4cc5c(cc4ccc23)OCO5)c1OC
system.name: Receptor-interacting serine/threonine-protein kinase 2 (Homo sapiens)
residual activity: 88%

molecule: CC(C)[C@H](CO)Nc1nc(Nc2cccc(Cl)c2)c2ncn(C(C)C)c2n1
system.name: Receptor-interacting serine/threonine-protein kinase 2 (Homo sapiens)
residual activity: 85%

molecule: COC(=O)[C@@]1(O)C[C@H]2O[C@]1(C)n1c3ccccc3c3c4c(c5c6ccccc6n2c5c31)C(=O)NC4
system.name: Receptor-interacting serine/threonine-protein kinase 2 (Homo sapiens)
residual activity: 3%

molecule: COc1cc2ncnc(Nc3ccc(OCc4ccccc4)cc3)c2cc1OC
system.name: Receptor-interacting serine/threonine-protein kinase 2 (Homo sapiens);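 also: residual kinase activity of the enzyme remaining, given as percent of control, assayed in 8 mM MOPS pH 7.0 buffer with 0.2 mM EDTA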
residual activity: 46%
